Tested on: NCI/ADR-RES ovarian
protocol text: NCI-60 one-dose screen, 48 h
test context: 10 µM unless noted
About 83,000 compounds went through this panel and 20% of them were active in at least one assay; those are over-represented in the sample as a whole. Active and inactive are the calls of the source. The calls were made as follows: active = growth percent below 10; inactive = the rest.
Outcome codes: active, inactive

>  <molecule>
CC(=O)OC1Oc2ccccc2-c2oc3nc(=N)n(C)c-3cc21 (stereo not given)

>  <category>
inactive

$$$$
>  <molecule>
COc1c(B(O)O)cccc1-c1nc2c(F)cc3n[nH]c(C)c3c2c2c1CCCC2

>  <category>
inactive

$$$$
>  <molecule>
CN(C)CCOc1nc2c3cccnc3cc(-c3cccc(Cl)c3)c2c2ncccc12

>  <category>
inactive

$$$$
>  <molecule>
COc1cc(C2Nc3ccccc3S2)cc(CN2CCOCC2)c1O (stereo not given)

>  <category>
inactive

$$$$
>  <molecule>
CNC(=O)c1cc(Oc2ccc(NC(=O)c3nc(S(C)(=O)=O)n(C)c3-c3ccc(F)cc3)cc2)ccn1

>  <category>
inactive

$$$$
>  <molecule>
O=C(OCc1ccc2c(Br)cc(Br)c(O)c2n1)c1cc2ccccc2[nH]1

>  <category>
active

$$$$
>  <molecule>
CC(=O)[C@H]1CC[C@H]2[C@@H]3CC[C@H]4CC=CC[C@]4(C)[C@H]3CC[C@]12C

>  <category>
inactive

$$$$
>  <molecule>
Clc1ccccc1Nc1nnc(-c2ccncc2)s1

>  <category>
inactive

$$$$
>  <molecule>
CN=C1C=C/C(=N/N=c2/ccn(O)cc2C)C=C1C

>  <category>
inactive

$$$$
>  <molecule>
NS(=O)(=O)c1ccc(N2N=C(c3ccc(Br)cc3)CC2c2cn(-c3ccccc3)nc2-c2ccc(Cl)cc2)cc1 (stereo not given)

>  <category>
inactive

$$$$

* * *

System: NCI-H23 lung
protocol text: NCI-60 one-dose screen, 48 h (100 = growth as untreated, 0 = no growth, -100 = all killed)
test context: 10 µM unless noted
Compounds without any hit were thinned out: in the full panel of roughly 83,000, 20% have a hit.
# growth per entry

>  <compound>
COc1cccc(/C=N/N=C(N)N)c1

>  <growth (%)>
103

$$$$
>  <compound>
O=C(Nc1ccc(Oc2ccc(NC(=O)Nc3ccccc3Cl)cc2)cc1)Nc1ccccc1Cl

>  <growth (%)>
41.8

$$$$
>  <compound>
C#CC[C@@H]1C[C@]2(C)[C@H]3CC[C@@H]4[C@H]5C(C(=C)C)CC[C@]5(C(=O)NCCCCN)CC[C@@]4(C)[C@]3(C)CC[C@H]2C(C)(C)[C@H]1OC(C)=O (some centres undefined)

>  <growth (%)>
11.7

$$$$
>  <compound>
O=S(=O)(NCC[C@@H]1C[C@H]1c1ccc2ccccc2c1)c1ccc(C(F)(F)F)cc1

>  <growth (%)>
84.9

$$$$

* * *

Test system: MALME-3M melanoma
protocol text: NCI-60 one-dose screen, 48 h (100 = growth as untreated, 0 = no growth, -100 = all killed)
test context: 10 µM unless noted
Compounds without any hit were thinned out: in the full panel of roughly 83,000, 20% have a hit.
# growth per entry

>  <molecule>
Cc1ccc(NC(=O)c2[nH]c(SCCN(C)C)nc2-c2ccc(F)cc2)cc1Nc1ccc2ncn(C)c(=O)c2c1

>  <tested target>
MALME-3M melanoma

>  <unit name>
%

>  <growth>
-12.8

$$$$
>  <molecule>
COc1ccc(C(=O)C(C#N)c2cc(OC)c(OC)c(OC)c2)cc1 (stereo not given)

>  <tested target>
MALME-3M melanoma

>  <unit name>
%

>  <growth>
106

$$$$
>  <molecule>
CN1CCN(Cc2ccc(NC(=O)c3cnc(F)c(C#Cc4cnc(N)c5ncccc45)c3)cc2C(F)(F)F)CC1

>  <tested target>
MALME-3M melanoma

>  <unit name>
%

>  <growth>
-43.1

$$$$
>  <molecule>
COc1ccc2nc(NC(=O)/C(=C/c3cc(OC)c(OC)c(OC)c3)c3ccc(OC)c(OC)c3)sc2c1

>  <tested target>
MALME-3M melanoma

>  <unit name>
%

>  <growth>
98

$$$$
>  <molecule>
O=c1cc(-c2ccc3c(c2)OCCO3)oc2cc(Cl)ccc12

>  <tested target>
MALME-3M melanoma

>  <unit name>
%

>  <growth>
-16.3

$$$$

* * *

Test system: HCT-15 colon
protocol text: NCI-60 one-dose screen, 48 h (100 = growth as untreated, 0 = no growth, -100 = all killed)
test context: 10 µM unless noted
The panel holds about 83,000 compounds, 20% with a hit somewhere; the sample as a whole holds those more often.
Lab note: cut-off is 30%. Strictly less in growth is t. Exactly 30% or more is f.

>  <compound>
CC(=O)Nc1nonc1-c1nc2ccccc2n1Cc1ccc(C(C)(C)C)cc1

>  <category>
f

$$$$
>  <compound>
Cc1c(C)c(C)c([N+](=O)[O-])c([N+](=O)[O-])c1C

>  <category>
f

$$$$
>  <compound>
CC1=NN(c2cccc(S(N)(=O)=O)c2)C(=O)C1

>  <category>
f

$$$$
>  <compound>
Cc1ccc(CSCc2ccc(C(=O)NC3CC3)o2)cc1

>  <category>
f

$$$$
>  <compound>
CC(=O)[C@H]1CC[C@H]2[C@@H]3CC[C@H]4CC=CC[C@]4(C)[C@H]3CC[C@]12C

>  <category>
f

$$$$
>  <compound>
COCCCNCC(=O)Nc1c(C)cccc1C

>  <category>
f

$$$$
>  <compound>
Cc1cc(C)cc(NC(=O)Cn2nncc2CN2C(=O)CSC2=O)c1

>  <category>
f

$$$$
>  <compound>
COc1cc(C2C=C(C)N=C3SC=NN32)cc(OC)c1OC (stereo unspecified)

>  <category>
f

$$$$
>  <compound>
COc1cc(Cn2c(-c3ccccc3)cc3c2-c2oncc2CC3)cc(OC)c1OC

>  <category>
t

$$$$
>  <compound>
COc1ccc2c(c1)CCCC21C(=O)Nc2ccccc21 (stereo unspecified)

>  <category>
f

$$$$
>  <compound>
COc1ccc(/C=C2\N=C(c3cccnc3)N(c3ccccc3)NC2=O)cc1

>  <category>
f

$$$$
>  <compound>
COc1ccc(OC)c(Nc2nc(-c3c(C)nc4sccn34)cs2)c1

>  <category>
f

$$$$
>  <compound>
COc1ccc2c(c1)N(CCO)C1=C(C(=O)OC1)C2c1cccc(Br)c1 (stereo unspecified)

>  <category>
t

$$$$
>  <compound>
Cc1ccc(NC(=O)c2[nH]c(SCCN(C)C)nc2-c2ccc(F)cc2)cc1C#Cc1cnc2cccnn12

>  <category>
t

$$$$
>  <compound>
O=C(O)c1cn(-c2ccccc2)nc1-c1ccc(O)cc1

>  <category>
f

$$$$
>  <compound>
CCN(CC)Cc1cc(Nc2ccnc3cc(Cl)ccc23)cc(-c2ccc(Cl)cc2)c1O

>  <category>
t

$$$$
>  <compound>
ClCc1cccc(CSc2ncnc3c2ncn3Cc2cccc(CCl)c2)c1

>  <category>
t

$$$$
>  <compound>
COc1ccc(C(=O)C(CN(C)C)c2ccccc2)cc1 (stereo unspecified)

>  <category>
t

$$$$
>  <compound>
O=C(Nc1ccc(Br)cc1)Nc1ccccc1Cl

>  <category>
f

$$$$
>  <compound>
COc1ccc(-c2nsc3c2NC(=O)CC3c2cccc(F)c2)cc1 (stereo unspecified)

>  <category>
t

$$$$
>  <compound>
O=C1c2ccccc2C2N1CCC1CCc3ccccc3N12 (stereo unspecified)

>  <category>
f

$$$$
>  <compound>
Cc1ccc(-c2nc3ccccc3c(=O)n2/N=C/c2cccc3ccccc23)cc1

>  <category>
f

$$$$
>  <compound>
O=C(NCCNC(=O)c1cc(S(=O)(=O)NCCc2ccccc2)c(O)c(O)c1O)c1cc(S(=O)(=O)NCCc2ccccc2)c(O)c(O)c1O

>  <category>
f

$$$$
>  <compound>
COc1cccc(CC(C)=C(c2ccc(OCCCN(C)C)cc2)c2ccc(OCCCN(C)C)cc2)c1

>  <category>
t

$$$$
>  <compound>
N#Cc1nc(-c2ccc(Cl)cc2)cc(-c2ccc(Nc3nc(N4CCCCC4)nc(N4CCCCC4)n3)cc2)c1N

>  <category>
f

$$$$
>  <compound>
COc1cc2nccc(Oc3ccc(NC(=O)C4(C(=O)Nc5ccc(F)cc5)CC4)cc3)c2cc1Oc1ccc(N)cn1

>  <category>
t

$$$$
>  <compound>
CCCCN(CCCC)CCCN=c1nc2c(c(N)n1-c1ccccc1)c(=S)n(-c1ccccc1)c(=S)n2-c1ccccc1

>  <category>
t

$$$$
>  <compound>
c1ccc2c(Cc3csc4ccccc34)csc2c1

>  <category>
f

$$$$
>  <compound>
CCCCCCCCCCCC1=NC(C)(C)CN1C(C)(C)CO

>  <category>
t

$$$$
>  <compound>
CC(=O)c1cc(C(=O)c2ccc3c(c2)Sc2ccccc2N3)c2c(C)cccn12

>  <category>
t

$$$$
>  <compound>
CCN1CCN(Cc2ccc(NC(=O)c3nc4ccc5[nH]ncc5c4c4c3CCCC4)cc2C(F)(F)F)CC1

>  <category>
t

$$$$
>  <compound>
CCOc1cccc(/C=N/NC(=O)c2ccc(Nc3ccnc(C(F)(F)F)c3)cc2)c1O

>  <category>
t

$$$$
>  <compound>
COc1ccc(/C(=C\c2cc(OC)c(OC)c(OC)c2)C(=O)N2CCNCC2)cc1

>  <category>
f

$$$$
>  <compound>
CCCCCCCCCCCCCCCCOc1ccc(S(=O)(=O)N(C)C)cc1[N+](=O)[O-]

>  <category>
f

$$$$
>  <compound>
CCN(CC)CCCC(C)N/C(c1cccc(OC)c1)=c1\c(=O)[nH]n(-c2c3ccccc3nc3ccccc23)c(=O)\c1=C(/NC(C)CCCN(CC)CC)c1cccc(OC)c1 (stereo unspecified)

>  <category>
t

$$$$
>  <compound>
O=C(/C=C/c1ccccc1)C(Br)C(Br)c1ccccc1 (stereo unspecified)

>  <category>
t

$$$$
>  <compound>
COCCn1c(Nc2ccc(C(=O)NO)cc2)nc2ccccc21

>  <category>
f

$$$$
>  <compound>
CN1CCN(c2ccc(N3Cc4ccccc4OC4=C3C(=O)c3c(O)ccc(O)c3C4=O)cn2)CC1

>  <category>
t

$$$$
>  <compound>
COc1cc(C2CC(c3ccc(Cl)cc3)=NN2C=O)ccc1OS(=O)(=O)c1ccc(C)cc1 (stereo unspecified)

>  <category>
f

$$$$
